Data origin, for the record: patent US20150086555A1

Biological target: recombinant soluble homotrimeric HA of A/Indonesia/5/05 (H5N1) (Influenza A virus A/Indonesia/5/2005(H5N1))
Experiment: trimeric HA microarray, transfection supernatant set 4
Conditions: remark: other sources report otherwise
endpoint: Trimeric HA Binding: RLU (RLU)
Please state the figure in RLU; there is no need to write the unit.

TCN-504 (3251_K17) (antibody, V domains shown) VH: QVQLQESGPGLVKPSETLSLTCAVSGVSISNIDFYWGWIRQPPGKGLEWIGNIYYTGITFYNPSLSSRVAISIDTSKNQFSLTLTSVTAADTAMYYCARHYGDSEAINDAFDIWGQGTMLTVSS VL: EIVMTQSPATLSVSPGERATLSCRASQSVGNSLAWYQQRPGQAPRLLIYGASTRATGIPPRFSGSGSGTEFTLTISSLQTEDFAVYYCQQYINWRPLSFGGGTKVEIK
18200
TCN-523 (5248_A17) (antibody, V domains shown) VH: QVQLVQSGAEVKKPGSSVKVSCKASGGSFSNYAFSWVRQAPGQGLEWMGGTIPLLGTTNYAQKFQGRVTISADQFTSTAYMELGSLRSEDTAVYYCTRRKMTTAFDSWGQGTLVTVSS VL: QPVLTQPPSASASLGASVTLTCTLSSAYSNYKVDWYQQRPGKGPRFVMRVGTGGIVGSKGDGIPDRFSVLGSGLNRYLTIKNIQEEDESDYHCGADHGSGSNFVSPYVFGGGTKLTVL
24500

// next item, Trimeric HA Binding: RLU requested
So what's the measured Trimeric HA Binding: RLU for this one? TCN-534 (5249_B02) (antibody, V domains shown) VH: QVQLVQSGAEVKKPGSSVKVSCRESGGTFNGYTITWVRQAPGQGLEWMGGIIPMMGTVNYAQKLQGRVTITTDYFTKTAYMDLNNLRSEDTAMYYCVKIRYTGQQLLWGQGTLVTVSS VL: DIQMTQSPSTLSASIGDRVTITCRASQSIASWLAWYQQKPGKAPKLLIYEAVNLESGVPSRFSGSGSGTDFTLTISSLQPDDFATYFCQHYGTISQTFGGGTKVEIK 948
